pKd values, listed per item
# Assay target: T1, recombinant human C1r2s2 tetramer (human, UniProt P09871 16-688; P00736 18-705)
# T1 construct: C1s and C1r co-expressed in HEK293/FreeStyle 293-F and purified from conditioned medium
# T1 chain 1: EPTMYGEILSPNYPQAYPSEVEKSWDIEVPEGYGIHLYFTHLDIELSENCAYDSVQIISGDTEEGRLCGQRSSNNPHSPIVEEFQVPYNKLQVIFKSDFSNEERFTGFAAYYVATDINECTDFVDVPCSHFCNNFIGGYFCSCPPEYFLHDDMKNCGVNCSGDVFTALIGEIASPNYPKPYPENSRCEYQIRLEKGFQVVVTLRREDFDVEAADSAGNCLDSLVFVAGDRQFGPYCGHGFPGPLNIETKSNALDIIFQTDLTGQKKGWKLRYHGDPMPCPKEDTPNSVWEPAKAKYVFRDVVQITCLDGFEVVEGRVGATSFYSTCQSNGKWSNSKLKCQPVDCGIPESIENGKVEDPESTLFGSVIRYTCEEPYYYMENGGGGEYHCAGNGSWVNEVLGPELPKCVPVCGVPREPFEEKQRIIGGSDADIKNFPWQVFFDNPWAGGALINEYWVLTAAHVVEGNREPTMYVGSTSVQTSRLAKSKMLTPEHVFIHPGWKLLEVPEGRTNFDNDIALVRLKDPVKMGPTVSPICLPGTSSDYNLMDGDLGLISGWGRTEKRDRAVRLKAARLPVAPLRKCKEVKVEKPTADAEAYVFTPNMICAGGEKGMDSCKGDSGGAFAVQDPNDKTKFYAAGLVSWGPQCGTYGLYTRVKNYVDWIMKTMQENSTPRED
# T1 chain 2: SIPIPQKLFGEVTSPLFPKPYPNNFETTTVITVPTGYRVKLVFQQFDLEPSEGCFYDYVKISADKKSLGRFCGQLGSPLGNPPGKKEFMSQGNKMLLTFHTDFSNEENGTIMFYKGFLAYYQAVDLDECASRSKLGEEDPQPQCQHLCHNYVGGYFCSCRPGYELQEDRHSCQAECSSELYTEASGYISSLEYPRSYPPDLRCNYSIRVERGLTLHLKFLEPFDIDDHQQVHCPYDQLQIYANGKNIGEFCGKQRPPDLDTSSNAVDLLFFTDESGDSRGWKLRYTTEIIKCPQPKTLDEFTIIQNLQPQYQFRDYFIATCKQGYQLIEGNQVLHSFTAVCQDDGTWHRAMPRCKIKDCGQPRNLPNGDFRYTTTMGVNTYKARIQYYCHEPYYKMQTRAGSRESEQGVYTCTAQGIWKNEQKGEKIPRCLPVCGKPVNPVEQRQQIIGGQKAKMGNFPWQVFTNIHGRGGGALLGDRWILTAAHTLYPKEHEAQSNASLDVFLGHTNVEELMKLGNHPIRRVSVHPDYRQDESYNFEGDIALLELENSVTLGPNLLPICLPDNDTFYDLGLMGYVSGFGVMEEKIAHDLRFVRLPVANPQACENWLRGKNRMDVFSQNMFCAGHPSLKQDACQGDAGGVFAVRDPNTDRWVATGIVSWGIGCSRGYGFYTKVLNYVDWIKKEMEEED
# Measurement notes: SPR (BIACORE T200), 37 C, Ab captured via anti-human Ig kappa, human C1r2s2 as analyte, pH 5.8
pKd here is simply -log10 of the concentration when that concentration is written in mol/L.

// below: answered binders
>  <Binder>
COS0637pHv7-TT91R (antibody, V domains shown) VH: QVQLVESGGGVVQPGRSLRLSCAASGFTFSAYAMNWIRQPPGKGLEWIGLIYGSGHEFYASWAEERVTISVDTSKNQFSLKLSSVTAADTAVYYCARGRSKNYNSDFHLWGQGTLVTVSS VL: DIQMTQSPSSLSASVGDRVTITCQASQILHDKKNLAWYQQKPGQPPKLLIYQASQLESGVPSRFSGSGSGTDFTLTISSLQPEDFATYYCHGEFSYSSADLNTFGQGTKVEIKR

>  <pKd>
6.45

$$$$
>  <Binder>
COS0637pHv1-TT91R (antibody, V domains shown) VH: QVQLVESGGGVVQPGRSLRLSCAASGFTFSAYAMNWIRQPPGKGLEWIGLIYGSKSTFYASWAEGRVTISVDTSKNQFSLKLSSVTAADTAVYYCARGRSKNYNSDFHLWGQGTLVTVSS VL: DIQMTQSPSSLSASVGDRVTITCQASQSLHDKKNLAWYQQKPGQPPKLLIYGASTLESGVPSRFSGSGSGTDFTLTISSLQPEDFATYYCQGEFSCSSADCNTFGQGTKVEIKR

>  <pKd>
5.44

$$$$

Now, please, on to the next binder.
INPUT: If you can, please state the reported pKd value of COS0637pHv9-TT91R (antibody, V domains shown) VH: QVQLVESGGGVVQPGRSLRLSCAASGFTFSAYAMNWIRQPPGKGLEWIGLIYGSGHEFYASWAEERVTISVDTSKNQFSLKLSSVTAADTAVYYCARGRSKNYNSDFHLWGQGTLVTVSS VL: DIQMTQSPSSLSASVGDRVTITCQANQILHDKKNLAWYQQKPGQPPKLLIYQASQRESGVPSRFSGSGSGTDFTLTISSLQPEDFATYYCHGEFPYESADLNTFGQGTKVEIKR .
OUTPUT: 6.80
